# System: lanierone-responsive B-neuron OSN class (ItypOR36)
# Test description: net action potential response of lanierone B-neuron (blank-subtracted) (spikes/s (Hz)); higher = stronger excitation
# Cond: co-localized A-neuron class: (5S,7S)-trans-conophthorin; 10 µg on filter paper; neuron: B neuron (small spike amplitude)
This section presents compounds with their documented net action potential response values.

Record excerpt, results attached:
// `CC(=O)CC/C=C(\C)CCC=C(C)C` : net action potential response value = -2

According to the records, this compound CC(C)[C@@]12CC[C@@](C)(O)[C@@H]1C2 [(+)-trans-4-Thujanol] displays net action potential response of 0

The value of net action potential response measured for the compound CCCCCC(O)CC (racemic) [(±)-3-Octanol] turned out to be -1

The compound listed as `C=Cc1ccccc1` has a reported net action potential response of -1.33

Briefly, net action potential response measured for CC(=O)OCCc1ccccc1 [2-Phenethyl acetate] : -0.667

The compound identified as CC[C@H]1O[C@]2(C)CCC[C@H]1O2 (racemic) [(±)-exo-Brevicomin] registered its net action potential response at -4

The compound listed as CC1(C)C2CC=C(CO)C1C2 (racemic) [(±)-Myrtenol] has a reported net action potential response of 2.5

Documented net action potential response of `CCCCCCO` : 0.5

Next:
net action potential response recorded for this compound, `CC/C=C\CCO` , is -4

For record C=CC(=C)CC(O)C=C(C)C (racemic) [(±)-Ipsdienol] the listed net action potential response is -0.5

For `C=CCc1ccc(OC)c(OC)c1` the compound record lists net action potential response as -3

The recorded net action potential response for entry `C=CC(C)(C)O` equals -4.67

The compound listed as C=C1[C@@H]2CC[C@@H](C2)C1(C)C (racemic) [(±)-Camphene] shows net action potential response equal to 0

Entry under test: `OCCc1ccccc1` . Its net action potential response was -3

Sample C[C@]12CCC[C@](C)(OC1)O2 (racemic) [(±)-Frontalin] ; net action potential response observed: -2

What the record says about CC1=CCC2CC1C2(C)C (stereo not drawn) [(+)-α-Pinene] : net action potential response is -0.5

// net action potential response lookup, compound = C=C1CCC2CC1C2(C)C (stereo not drawn) [(-)-β-Pinene] , result: 3.33

The recorded net action potential response for C=C1CCC2(C(C)C)CC12 (racemic) [(±)-Sabinene] is -1.33

// recorded net action potential response for `C=CC(=C)CCC=C(C)C` : 0

Briefly, net action potential response measured for CCC/C=C/C=O [(E)-hex-2-enal] : 0

Noted for C=CC(=C)C[C@@H](O)CC(C)C (racemic) [(±)-Ipsenol] : its net action potential response reads 0

---

# Tested on: ipsdienol A-neuron OSN class
# Test description: net action potential response of A-neuron (blank-subtracted) (spikes/s (Hz)); higher = stronger excitation
# Cond: 10 µg on filter paper; neuron: A neuron (large spike amplitude)
Assay endpoint: net action potential response
Lab note: jot down the number only; don't add units.

Worked examples follow.
Lookup result for C=CC(=C)CCC=C(C)C [Myrcene] ; measured net action potential response: -2

net action potential response for c1ccc2c(c1)CCO2 [2,3-Dihydrobenzofuran] is 4

Reported net action potential response for COc1ccc(C)cc1 [4-Methyl anisole] was 4

Recorded result, C=CC(O)CCCCC (racemic) [(±)-1-Octen-3-ol] , net action potential response: -0.667

According to the records, this compound COc1ccc(C)cc1OC [3,4-Dimethoxytoluene] displays net action potential response of 0.667

Next:
// sample CCc1ccc(O)c(OC)c1 [4-Ethylguaiacol] , its net action potential response was 0

Sure, the documented net action potential response for CC1=CCC(=C(C)C)CC1 [Terpinolene] is 1.33

Measured net action potential response, C=CCc1ccc(OC)c(OC)c1 [Eugenol methyl ether] : 1.33

Measured net action potential response, C=C1CCC2(C(C)C)CC12 (racemic) [(±)-Sabinene] : 3.33

The reported value for CC1(C)C2CC=C(CO)C1C2 (racemic) [(±)-Myrtenol] in terms of net action potential response is 0.667

Recorded net action potential response (compound CCCCCC(O)CC (racemic) [(±)-3-Octanol] ): -0.667

So for C[C@]12CCC[C@](C)(OC1)O2 (racemic) [(±)-Frontalin] , the logged net action potential response turned out to be 2

According to the records, this compound CC(C)=CCC/C(C)=C/C=O [Citral (E/Z mix)] displays net action potential response of 1.33

The reported net action potential response of the compound CCC(C)CO (racemic) [(±)-2-Methyl-1-butanol] was 3.33

// CC12CCC(CC1=O)C2(C)C (racemic) [(±)-Camphor] : net action potential response value = -0.667

Documented net action potential response of `CC/C=C\CCO` : 0

Data point: C=C(C)[C@@H]1CC=C(C)CC1 [(-)-Limonene] ; net action potential response = 5.33

Measured net action potential response of C=CC(=C)CC(O)C=C(C)C (racemic) [(±)-Ipsdienol] : 116

The compound listed as CC1=CC(C)(C)C=C(O)C1=O [Lanierone] shows net action potential response equal to -3.33

The compound listed as CC(C)[C@@]12CC[C@@](C)(O)[C@@H]1C2 [(+)-trans-4-Thujanol] shows net action potential response equal to -4

---

# Test system: lanierone-responsive B-neuron OSN class (ItypOR36)
# Test description: net action potential response of lanierone B-neuron (blank-subtracted) (spikes/s (Hz)); higher = stronger excitation
# Cond: co-localized A-neuron class: (+)-trans-4-thujanol; 10 µg on filter paper; neuron: B neuron (small spike amplitude)
Assay endpoint: net action potential response
Answer with the value's number alone.

Form field net action potential response, entry CC1=CC(C)(C)C=C(O)C1=O [Lanierone] : 155

According to the records, this compound C=CC(O)CCCCC (racemic) [(±)-1-Octen-3-ol] displays net action potential response of 0

***
Input CC(=O)CC/C=C(\C)CCC=C(C)C [Geranylacetone] . Output net action potential response: 0

The measured net action potential response associated with C[C@@H]1C(=O)C[C@H]2C[C@@H]1C2(C)C [(+)-Isopinocamphone] reads 1

Reported net action potential response ( OCCc1ccccc1 [2-Phenylethanol] ) = 1

Form field net action potential response, entry C=C1CCC2(C(C)C)CC12 (racemic) [(±)-Sabinene] : 0.5

The compound listed as CC1=CCC(C(C)C)=CC1 [γ-Terpinene] has a reported net action potential response of -0.5

The reported net action potential response of the compound `CCC/C=C/CO` was 4

According to the records, this compound CC(C)[C@@]12CC[C@@](C)(O)[C@@H]1C2 [(+)-trans-4-Thujanol] displays net action potential response of -6.5

Recorded result, CC(=O)OCCC(C)C [3-Methylbutyl acetate] , net action potential response: 0

So, CC(=O)OCCc1ccccc1 [2-Phenethyl acetate] ? Its net action potential response was 0.5

Lab note: CCCCCC=O [Hexanal] gave net action potential response of -3

---

# Tested on: (+)-isopinocamphone A-neuron OSN class
# Test description: net action potential response of A-neuron (blank-subtracted) (spikes/s (Hz)); higher = stronger excitation
# Cond: 10 µg on filter paper; neuron: A neuron (large spike amplitude)
Assay endpoint: net action potential response
Form rule: numeric answer, no unit written next to it.

Documented net action potential response of `CC1=CCC(=C(C)C)CC1` : 3.33

Field net action potential response (entry `CCC/C=C/CO` ) reads -1.33

In plain terms, CCCCCC(O)CC (racemic) [(±)-3-Octanol] has a documented net action potential response of 10

net action potential response for `CC1=CCC(C(C)C)=CC1` is -0.667

Data point: C=CC(=C)C[C@@H](O)CC(C)C (racemic) [(±)-Ipsenol] ; net action potential response = -1.33

---
Lab book: net action potential response of `CC/C=C/CCO` noted as 8.67

net action potential response reading for CC(=O)OCc1ccccc1 [Benzyl acetate] : 4

# compound `Cc1ccc(C(C)C)cc1` ; its net action potential response = -0.667

The compound listed as C=C1CCC2CC1C2(C)C (stereo not drawn) [(-)-β-Pinene] has a reported net action potential response of 8

net action potential response for C[C@]12CCC[C@](C)(OC1)O2 (racemic) [(±)-Frontalin] is 2

So for `CC(C)CCO` , the logged net action potential response turned out to be 2

Note to self: net action potential response recorded for C[C@@H]1C(=O)C[C@H]2C[C@@H]1C2(C)C [(+)-Isopinocamphone] was 172

GET /value?item= CC(=O)OCCc1ccccc1 [2-Phenethyl acetate] &field=net action potential response returns 0.667

---

# Tested on: (5S,7S)-trans-conophthorin A-neuron OSN class
# Test description: net action potential response of A-neuron (blank-subtracted) (spikes/s (Hz)); higher = stronger excitation
# Cond: 10 µg on filter paper; neuron: A neuron (large spike amplitude)
net action potential response values by entry

Some compounds with recorded net action potential response:
Record CC1=CCC2CC1C2(C)C (stereo not drawn) [(-)-α-Pinene] , field net action potential response: 2.67

// net action potential response value for CCC1CCC2(CCCO2)O1 (racemic) [(±)-Chalcogran] : 175

Recorded net action potential response (compound `CCc1ccc(O)c(OC)c1` ): 3.33

net action potential response reported for this compound `CC(=O)c1ccccc1` : 2

// net action potential response value for `COc1ccccc1` : 1.33

Others:
The reported net action potential response of the compound `C=CC(=C)CCC=C(C)C` was 2

Query C=C1[C@@H]2CC[C@@H](C2)C1(C)C (racemic) [(±)-Camphene] yields net action potential response of -2.67

The recorded net action potential response for entry CC(C)=CCC/C(C)=C/C=O [Citral (E/Z mix)] equals 2

Origin of values: the supplement of paper PMC11577813
